- experimental system: rat mGlu2 (Rattus norvegicus)
- Construct: expressed in transfected cells
- assay details: mGlu2 Ca2+ flux assay
- Type: cell-based

- line notation: "CN(Cc1cccnc1)c1ccc2c(c1)c(=O)c(C#N)cn2-c1ccc(F)cc1"
  units label: "µM"
  IC50: 3.16

* * *

Recorded measurements of IC50, one per entry
- experimental system: rat mGlu2 (Rattus norvegicus, UniProt P31421)
- Construct: expressed in transfected cells
- Sequence (P31421 19-872): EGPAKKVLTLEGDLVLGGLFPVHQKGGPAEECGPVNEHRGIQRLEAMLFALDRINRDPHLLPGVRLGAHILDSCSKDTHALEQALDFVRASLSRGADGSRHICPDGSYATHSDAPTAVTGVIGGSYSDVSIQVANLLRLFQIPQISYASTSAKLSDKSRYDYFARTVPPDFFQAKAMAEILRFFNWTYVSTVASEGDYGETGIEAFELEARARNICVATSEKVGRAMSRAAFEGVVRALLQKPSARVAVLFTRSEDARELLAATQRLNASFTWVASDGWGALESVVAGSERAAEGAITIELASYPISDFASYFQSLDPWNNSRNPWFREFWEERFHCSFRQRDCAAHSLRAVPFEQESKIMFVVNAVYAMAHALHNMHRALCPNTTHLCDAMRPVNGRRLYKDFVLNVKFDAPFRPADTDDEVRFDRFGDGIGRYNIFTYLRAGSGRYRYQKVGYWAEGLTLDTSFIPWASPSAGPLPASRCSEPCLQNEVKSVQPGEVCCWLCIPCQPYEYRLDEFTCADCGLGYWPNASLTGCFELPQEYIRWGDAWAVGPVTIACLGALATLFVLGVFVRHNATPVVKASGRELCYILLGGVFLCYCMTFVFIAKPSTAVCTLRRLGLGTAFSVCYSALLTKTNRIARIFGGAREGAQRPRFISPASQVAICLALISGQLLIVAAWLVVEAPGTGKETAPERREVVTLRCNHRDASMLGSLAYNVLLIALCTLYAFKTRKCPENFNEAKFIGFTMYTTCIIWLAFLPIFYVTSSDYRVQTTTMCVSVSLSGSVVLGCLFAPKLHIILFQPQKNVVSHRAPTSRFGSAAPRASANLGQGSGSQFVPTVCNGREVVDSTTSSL
- assay details: mGlu2 Ca2+ flux assay
- Type: cell-based
- experimental conditions: Gα15 HEK293 cells stably expressing rat mGlu2; glutamate EC80 addition; read-out: rat mGlu2 IC50

- line notation: "NC(=O)c1cn(-c2ccc(F)cc2)c2ccc(CCc3cncc(F)c3)cc2c1=O"
  units label: "nM"
  IC50: 1030
- line notation: "NC(=O)c1cn(-c2ccc(F)cc2)c2ccc(CN3CCC(F)(F)CC3)cc2c1=O"
  units label: "nM"
  IC50: 197
- line notation: "NC(=O)c1cn(-c2ccc(F)cc2)c2ccc(Oc3cccnc3)cc2c1=O"
  units label: "nM"
  IC50: 882
- line notation: "Cc1ncc(CCc2ccc3c(c2)c(=O)c(C(N)=O)cn3-c2ccc(F)cc2)cn1"
  units label: "nM"
  IC50: 227
